- Tested on: Escherichia coli TOP10
- TEST SUMMARY: shrunken log2 fold change of peptide-encoding DNA abundance (4.5 h post-induction vs induction); higher = less antimicrobial activity (less host growth inhibition)
- STATED CONDITIONS: time post-induction: 4.5 h; library: site-saturation at positions 5, 18, 19, 20
Answer Not fulfilled if shrunken log2 fold change is under -0.02, and Fulfilled if it is -0.02 or more.

Consider the worked cases shown below.
CONSTRUCT SEQUENCE: RRIRMRPPRLPRPRPRPRRPPRP
CAT: Fulfilled
--
CONSTRUCT SEQUENCE: RRIRFRPPRLPRPRPRPMTPPRP
CAT: Not fulfilled
--
CONSTRUCT SEQUENCE: RRIRNRPPRLPRPRPRPFQEPRP
CAT: Not fulfilled

Exercise: Textbook exercise: given the entry "RRIRLRPPRLPRPRPRPWFIPRP" , state whether its shrunken log2 fold change is greater than or equal to -0.02.
Key: Not fulfilled

Exercise: Textbook exercise: given the entry "RRIRQRPPRLPRPRPRPKVWPRP" , state whether its shrunken log2 fold change is greater than or equal to -0.02.
Key: Fulfilled

Exercise: Textbook exercise: given the entry "RRIRFRPPRLPRPRPRPWSQPRP" , state whether its shrunken log2 fold change is greater than or equal to -0.02.
Key: Fulfilled

Exercise: Textbook exercise: given the entry "RRIRYRPPRLPRPRPRPLRQPRP" , state whether its shrunken log2 fold change is greater than or equal to -0.02.
Key: Fulfilled

Exercise: Textbook exercise: given the entry "RRIRDRPPRLPRPRPRPQLGPRP" , state whether its shrunken log2 fold change is greater than or equal to -0.02.
Key: Fulfilled

Exercise: Textbook exercise: given the entry "RRIRHRPPRLPRPRPRPACCPRP" , state whether its shrunken log2 fold change is greater than or equal to -0.02.
Key: Not fulfilled

Exercise: Textbook exercise: given the entry "RRIRIRPPRLPRPRPRPCIDPRP" , state whether its shrunken log2 fold change is greater than or equal to -0.02.
Key: Not fulfilled

---

Reported shrunken log2 fold change is given for each of the following sequences.
- System: Escherichia coli TOP10
- TEST SUMMARY: shrunken log2 fold change of peptide-encoding DNA abundance (4.5 h post-induction vs induction); higher = less antimicrobial activity (less host growth inhibition)
- STATED CONDITIONS: time post-induction: 4.5 h; library: site-saturation at positions 5, 18, 19, 20
When you answer, write just the number.

Exercise: Return reported shrunken log2 fold change; argument: "RRIRKRPPRLPRPRPRPNWLPRP"
Key: 0.246

Exercise: Return reported shrunken log2 fold change; argument: "RRIRERPPRLPRPRPRPGTGPRP"
Key: 0.229

Exercise: Return reported shrunken log2 fold change; argument: "RRIRQRPPRLPRPRPRPSMFPRP"
Key: -0.667

Exercise: Return reported shrunken log2 fold change; argument: "RRIRGRPPRLPRPRPRPCEGPRP"
Key: 0.364

Exercise: Return reported shrunken log2 fold change; argument: "RRIRLRPPRLPRPRPRPDGKPRP"
Key: -0.0351

Exercise: Return reported shrunken log2 fold change; argument: "RRIRRRPPRLPRPRPRPKIKPRP"
Key: -0.0183

Exercise: Return reported shrunken log2 fold change; argument: "RRIRQRPPRLPRPRPRPEFPPRP"
Key: -0.0498

Exercise: Return reported shrunken log2 fold change; argument: "RRIRQRPPRLPRPRPRPSAIPRP"
Key: -0.399

Exercise: Return reported shrunken log2 fold change; argument: "RRIRWRPPRLPRPRPRPYCYPRP"
Key: -0.562

---

- Test system: Escherichia coli TOP10
- TEST SUMMARY: shrunken log2 fold change of peptide-encoding DNA abundance (4.5 h post-induction vs induction); higher = less antimicrobial activity (less host growth inhibition)
- STATED CONDITIONS: time post-induction: 4.5 h; library: site-saturation at positions 5, 18, 19, 20
Answer not satisfied if shrunken log2 fold change is under 0.2, and satisfied if it is 0.2 or more.

Consider the worked cases shown below.
CONSTRUCT SEQUENCE: RRIRMRPPRLPRPRPRPTCNPRP
CAT: not satisfied

CONSTRUCT SEQUENCE: RRIRWRPPRLPRPRPRPMLGPRP
CAT: satisfied

CONSTRUCT SEQUENCE: RRIRDRPPRLPRPRPRPGRMPRP
CAT: not satisfied

CONSTRUCT SEQUENCE: RRIRKRPPRLPRPRPRPQLGPRP
CAT: satisfied

Exercise: Textbook exercise: given the entry "RRIRTRPPRLPRPRPRPLVVPRP" , state whether its shrunken log2 fold change is greater than or equal to 0.2.
Key: not satisfied

Exercise: Textbook exercise: given the entry "RRIRLRPPRLPRPRPRPQGIPRP" , state whether its shrunken log2 fold change is greater than or equal to 0.2.
Key: not satisfied

Exercise: Textbook exercise: given the entry "RRIRMRPPRLPRPRPRPCCAPRP" , state whether its shrunken log2 fold change is greater than or equal to 0.2.
Key: satisfied

Exercise: Textbook exercise: given the entry "RRIRSRPPRLPRPRPRPQEYPRP" , state whether its shrunken log2 fold change is greater than or equal to 0.2.
Key: not satisfied

Exercise: Textbook exercise: given the entry "RRIRGRPPRLPRPRPRPNTSPRP" , state whether its shrunken log2 fold change is greater than or equal to 0.2.
Key: not satisfied

---

- Test system: Escherichia coli TOP10
- TEST SUMMARY: shrunken log2 fold change of peptide-encoding DNA abundance (4.5 h post-induction vs induction); higher = less antimicrobial activity (less host growth inhibition)
- STATED CONDITIONS: time post-induction: 4.5 h; library: site-saturation at positions 5, 18, 19, 20
OUTCOME MEASURE: shrunken log2 fold change
When you answer, write just the number.

CONSTRUCT SEQUENCE: RRIRERPPRLPRPRPRPDDRPRP
REPORTED MEASUREMENT: -0.135

Let us examine a further case.
Exercise: Write down the reported shrunken log2 fold change of "RRIRCRPPRLPRPRPRPGSWPRP" , test system: Escherichia coli TOP10.
Key: 0.439

---

- Test system: Escherichia coli TOP10
- TEST SUMMARY: shrunken log2 fold change of peptide-encoding DNA abundance (4.5 h post-induction vs induction); higher = less antimicrobial activity (less host growth inhibition)
- STATED CONDITIONS: time post-induction: 4.5 h; library: site-saturation at positions 5, 18, 19, 20
param class (str): category from shrunken log2 fold change; see ranges range 1 = under -0.1, range 2 = from -0.1 up to 0.08, range 3 = 0.08 and over

CONSTRUCT SEQUENCE: RRIRVRPPRLPRPRPRPGHKPRP
CAT: range 1

CONSTRUCT SEQUENCE: RRIRSRPPRLPRPRPRPMMSPRP
CAT: range 2

CONSTRUCT SEQUENCE: RRIRNRPPRLPRPRPRPSIPPRP
CAT: range 1

CONSTRUCT SEQUENCE: RRIRDRPPRLPRPRPRPWWIPRP
CAT: range 2

CONSTRUCT SEQUENCE: RRIRLRPPRLPRPRPRPYNNPRP
CAT: range 1

Exercise: Which category fits this record: "RRIRLRPPRLPRPRPRPYMMPRP"
Key: range 1

---

Reported shrunken log2 fold change is given for each of the following sequences.
- Test system: Escherichia coli TOP10
- TEST SUMMARY: shrunken log2 fold change of peptide-encoding DNA abundance (4.5 h post-induction vs induction); higher = less antimicrobial activity (less host growth inhibition)
- STATED CONDITIONS: time post-induction: 4.5 h; library: site-saturation at positions 5, 18, 19, 20
When you answer, write just the number.

CONSTRUCT SEQUENCE: RRIRGRPPRLPRPRPRPMSAPRP
MEASUREMENT TARGET: Escherichia coli TOP10
REPORTED MEASUREMENT: 0.702

CONSTRUCT SEQUENCE: RRIRRRPPRLPRPRPRPNENPRP
MEASUREMENT TARGET: Escherichia coli TOP10
REPORTED MEASUREMENT: 0.256

CONSTRUCT SEQUENCE: RRIRKRPPRLPRPRPRPTNCPRP
MEASUREMENT TARGET: Escherichia coli TOP10
REPORTED MEASUREMENT: 0.0303

CONSTRUCT SEQUENCE: RRIRYRPPRLPRPRPRPTRKPRP
MEASUREMENT TARGET: Escherichia coli TOP10
REPORTED MEASUREMENT: 0.00746

CONSTRUCT SEQUENCE: RRIRSRPPRLPRPRPRPKVQPRP
MEASUREMENT TARGET: Escherichia coli TOP10
REPORTED MEASUREMENT: 0.293

CONSTRUCT SEQUENCE: RRIRNRPPRLPRPRPRPMEQPRP
MEASUREMENT TARGET: Escherichia coli TOP10
REPORTED MEASUREMENT: -0.208

CONSTRUCT SEQUENCE: RRIRQRPPRLPRPRPRPGRFPRP
MEASUREMENT TARGET: Escherichia coli TOP10
REPORTED MEASUREMENT: 0.363

CONSTRUCT SEQUENCE: RRIRWRPPRLPRPRPRPSVRPRP
MEASUREMENT TARGET: Escherichia coli TOP10
REPORTED MEASUREMENT: 0.117

CONSTRUCT SEQUENCE: RRIRPRPPRLPRPRPRPREPPRP
MEASUREMENT TARGET: Escherichia coli TOP10
REPORTED MEASUREMENT: 0.0876

CONSTRUCT SEQUENCE: RRIRMRPPRLPRPRPRPGEKPRP
MEASUREMENT TARGET: Escherichia coli TOP10;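 further: peptides expressed intracellularly from a pBAD plasmid library in pooled LB shake-flask culture, induced with 0.3% L-arabinose, DNA abundance read by NGS, three biological replicates, DESeq2 with apeglm shrinkage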
REPORTED MEASUREMENT: 0.00581

Exercise: Return reported shrunken log2 fold change; argument: "RRIRLRPPRLPRPRPRPVRTPRP"
Key: 0.175

Exercise: Return reported shrunken log2 fold change; argument: "RRIRARPPRLPRPRPRPWIQPRP"
Key: -0.103

Exercise: Return reported shrunken log2 fold change; argument: "RRIRSRPPRLPRPRPRPGCRPRP"
Key: 0.293

Exercise: Return reported shrunken log2 fold change; argument: "RRIRTRPPRLPRPRPRPLGNPRP"
Key: -0.159
